# assay_system: T1, human PD-L1 on CHO-K1 cells overexpressing human PD-L1 (human, UniProt Q9NZQ7 19-290)
# T1 construct: whole, on cells; also called CHO-K1/hPD-L1; CHO-K1-hPD-L1
# T1 sequence (Q9NZQ7 19-290): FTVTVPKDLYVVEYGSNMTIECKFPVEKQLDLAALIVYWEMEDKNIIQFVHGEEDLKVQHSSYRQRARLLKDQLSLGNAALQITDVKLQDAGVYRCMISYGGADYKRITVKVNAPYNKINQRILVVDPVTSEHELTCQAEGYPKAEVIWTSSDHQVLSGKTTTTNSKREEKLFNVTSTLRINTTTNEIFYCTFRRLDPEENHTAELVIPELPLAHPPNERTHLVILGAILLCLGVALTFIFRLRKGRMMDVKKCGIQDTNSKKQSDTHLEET
# test_summary: flow cytometry on CHO-K1 cells overexpressing human PD-L1 (CHO-K1/hPD-L1) [continued) F]
Listed here are binders together with their documented Maximum MFI.
quantity_kind: Maximum MFI (MFI)

1. PR005878 (antibody, human IgG1, V domains shown, The HC entry is used) VH: QVQLVESGGGVVQPGMSLRLSCAASGFTFSSYGMYWVRQAPGKGQEWVASIRYTGTEKHYADSVKGRFTISRDNSKNTLYLEMNSLRVEDTAVYYCAKNRALFGVIPDDSDIRGQGTMVTVSS: 419000
2. PR006246 (antibody, human IgG1, V domains shown, The HC entry is used) VH: QVQLVESGGGVVQPGMSLRLSCAASGFDFSSYGMYWVRQAPGKGQEWVASIRYTGTEKHYADSVKGRFTISRDNSKNTLYLEMNSLRVEDTAVYYCAKNRAIFGVIPDDSDIRGQGTMVTVSS: 396000

Source: patent US20240269276A1
